Target: Hexose transporter 1 (Plasmodium falciparum) (UniProt O97467)
Assay: ST_JUDE_LEISH: Cytotoxicity at 2uM final concentration against transgenic Leishmania Mexicana promastigotes LmPfHT that are glucose transport deficient and complemented with the Plasmodium falciparum hexose transporter. Activity is measured by DNA content using SYBR green in vitro
Type: functional
inhibition for assorted compounds
Provide only the numeric value, understood in %.

Sample records with inhibition:
Cc1cc(Nc2ncc3c(n2)N(C2CCC2)CC3)ccc1N1CCN(C)CC1	1.15
CCN(CC)CCOc1ccc(NC(=O)c2oc3ccccc3c2C=Cc2ccccc2)cc1	-0.45
CCN(CC(C)O)C(=O)c1ccc(-c2ccc(-c3nc4cccc(C)c4[nH]3)cc2)cc1 (stereo not given)	-2.57
Cc1cc(CN2CCC(N3CC(c4ccccc4)(c4ccccc4)OC3=O)C2)ccc1O (stereo not given)	3.7
CC(CN(C)C)C(=O)Nc1cccc(-c2ccc(-c3nc4ccccc4[nH]3)s2)c1 (stereo not given)	9.45

Qu. Report measured inhibition; entry is "Nc1nccc2ccc(-c3ccncc3)cc12"
Ans. 7.14

Qu. Supply inhibition value. Item: "CN1CCN(c2cc(NC(=O)c3ccc(-c4ccc(C#N)cc4)cc3)ccc2Cl)CC1"
Ans. -0.14

Qu. Supply reported inhibition belonging to this compound: "CC(=O)Nc1csc(-c2cnc(/C=C(\C)C[C@@H]3OC[C@H](C[C@@H]4O[C@H]4[C@@H](C)[C@H](C)O)[C@@H](O)[C@H]3O)o2)c1"
Ans. 4.42

Qu. Given CCCN(Cc1nnc(-c2ccco2)o1)C(=O)C1CCCN(C(=O)c2ccc(Cl)cc2)C1 (stereo not given) , respond with its inhibition.
Ans. 0.73

Qu. Read the entry "Cc1cc(Nc2cccc(C(F)(F)F)c2)nc(N)n1" and write its reported inhibition.
Ans. 0.91

* * *

Biological target: Glucose transporter (Leishmania mexicana) (UniProt O61059)
Assay: ST_JUDE_LEISH: Cytotoxicity at 2uM final concentration against transgenic Leishmania Mexicana promastigotes LmGT2 that are glucose transport deficient and complemented with the L. Mexicana glucose transporter 2. Activity is measured by DNA content using SYBR green in vitro
Type: functional
inhibition overview
Write the numeric value and follow it with the unit.

Example entries begin here.
c1ccc2c3c(ccc2c1)Sc1c(ccc2ccccc12)N3	5.33%
O=C(Nc1ccc(Cl)c(Cl)c1)N1CCc2cc3nccc(N4CCN5CCC[C@H]5C4)c3cc21	4.1%
CC1(C)NC(N)=NC(=N)N1OCCCc1cccc(C(F)(F)F)c1	1.25%

Then there is this compound:
Qu. Look up inhibition of "COc1cc(CNC[C@@H](O)[C@H](Cc2ccccc2)NC(=O)c2cc(C3CCCC3)cc(N3CCCCS3(=O)=O)c2)cc(OC)c1" and report it.
Ans. 6.05%

* * *

Target: Solute carrier family 2, facilitated glucose transporter member 1 (Homo sapiens) (UniProt P11166)
Sequence (P11166 whole entry): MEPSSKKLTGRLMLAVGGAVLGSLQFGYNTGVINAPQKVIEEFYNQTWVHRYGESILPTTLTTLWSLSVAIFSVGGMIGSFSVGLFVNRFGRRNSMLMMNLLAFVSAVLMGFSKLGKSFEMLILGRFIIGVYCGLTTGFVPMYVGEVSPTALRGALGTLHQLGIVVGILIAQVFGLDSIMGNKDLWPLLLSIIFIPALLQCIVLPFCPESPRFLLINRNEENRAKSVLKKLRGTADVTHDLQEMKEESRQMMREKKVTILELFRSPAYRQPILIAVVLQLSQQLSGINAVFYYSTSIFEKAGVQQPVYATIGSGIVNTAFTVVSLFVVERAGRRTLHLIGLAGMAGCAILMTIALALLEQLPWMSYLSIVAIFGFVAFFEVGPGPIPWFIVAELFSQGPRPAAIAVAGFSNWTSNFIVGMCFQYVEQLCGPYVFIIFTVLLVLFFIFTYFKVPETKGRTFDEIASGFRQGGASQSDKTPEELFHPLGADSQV
Assay: ST_JUDE_LEISH: Cytotoxicity at 2uM final concentration against transgenic Leishmania Mexicana promastigotes LmGLUT1 that are glucose transport deficient and complemented with the human glucose transporter GLUT1. Activity is measured by DNA content using SYBR green in vitro
Format: functional
Parameter: inhibition. Scope: all listed entries.
# output: bare number, implied unit %

Qu. State, in one line, measured inhibition of "CCN(CCCN1CCCCC1)c1nccc(Nc2ccc(Cl)cc2)n1"
Ans. 2.03

* * *

Target: Solute carrier family 2, facilitated glucose transporter member 1 (Homo sapiens) (UniProt P11166)
Experiment: ST_JUDE_LEISH: Cytotoxicity at 2uM final concentration against transgenic Leishmania Mexicana promastigotes LmGLUT1 that are glucose transport deficient and complemented with the human glucose transporter GLUT1. Activity is measured by DNA content using SYBR green in vitro
Assay type: functional
MEASURED_QUANTITY: inhibition (%)
Express it in %; write the number only.

Qu. Tell me inhibition reported for "Cc1cc(N[C@@H](CC(C)C)C(=O)NCc2cccs2)nc(NCCc2ccccc2)n1"
Ans. 7.7

Qu. Give reported inhibition value for "CCN(CC)CCN(Cc1ccc(-c2ccc(C(F)(F)F)cc2)cc1)C(=O)Cn1cc(Cc2cnn(C)c2)c(=O)nc1/C=C/c1cccc(F)c1F"
Ans. 3.81

Qu. Report inhibition for "CCCCc1ccccc1NS(=O)(=O)c1ccc(OC)c(N2CCNCC2)c1"
Ans. -0.96

* * *

Target: Glucose transporter (Leishmania mexicana)
Assay: ST_JUDE_LEISH: Cytotoxicity at 2uM final concentration against transgenic Leishmania Mexicana promastigotes LmGT2 that are glucose transport deficient and complemented with the L. Mexicana glucose transporter 2. Activity is measured by DNA content using SYBR green in vitro
Assay type: functional
Listed here are compounds together with their documented inhibition.
Give the number; % is assumed, so skip it.

Qu. Give inhibition; test system Glucose transporter (Leishmania mexicana); compound "O=C(N[C@@H](CC1CCCCC1)C(=O)NCc1cccc(C(F)(F)F)c1)c1ccc(O)c(-c2ccc(Cl)c(Cl)c2)c1"
Ans. 1.16

Qu. State, for Glucose transporter (Leishmania mexicana), measured inhibition of the compound listed here: "CC(=O)Nc1ccc(OCCN(CC(C)C)c2ccc(C(F)(F)F)c(C#N)c2)c(Cl)c1"
Ans. 8.7

* * *

// inhibition lookup, one value per entry
Target: Glucose transporter (Leishmania mexicana) (UniProt O61059)
Assay: ST_JUDE_LEISH: Cytotoxicity at 2uM final concentration against transgenic Leishmania Mexicana promastigotes LmGT2 that are glucose transport deficient and complemented with the L. Mexicana glucose transporter 2. Activity is measured by DNA content using SYBR green in vitro
Type: functional
Unit % implied. Number only.

Worked examples, 6 compounds total:
O=C(Nc1cccc(Cl)c1Cl)N1CCc2cc3nccc(N4CCN5CCC[C@H]5C4)c3cc21	3.39
COc1cc2nc(N3CCC(CNC(=O)c4cc5ccccc5s4)CC3)nc(N)c2cc1OC	10.4
O=[N+]([O-])c1ccc(C2=NN(S(=O)(=O)c3c(Cl)cc(Cl)cc3Cl)CCCC2)cc1	-0.34
Oc1ccc2ccccc2c1C=NNc1nc(=Nc2ccccc2)nc(N2CCOCC2)[nH]1	0.2
O=C(Nc1cccc(C2=NCCCN2)c1)Nc1cccc(C2=NCCCN2)c1	0.46
Cc1ccc(CNC(=O)[C@H](CC(C)C)Nc2cc(C)nc(NCC3CCCCC3)n2)cc1	9.26

Consider the record given below.
Qu. Given "CC(C)(CNCc1ccc(Cl)c(Cl)c1)c1nc(-c2ccc(Cl)c(O)c2)c(-c2ccncc2)[nH]1" , respond with its inhibition.
Ans. 4.37

* * *

Molecular target: Hexose transporter 1 (Plasmodium falciparum)
Assay: ST_JUDE_LEISH: Cytotoxicity at 2uM final concentration against transgenic Leishmania Mexicana promastigotes LmPfHT that are glucose transport deficient and complemented with the Plasmodium falciparum hexose transporter. Activity is measured by DNA content using SYBR green in vitro
Type: functional
MEASURED_QUANTITY: inhibition (%)
Give just the numeric value; % need not be written.

Past entries and their recorded results:
COC(=O)c1cccc(NC(=O)NC2CCN(c3ccnc(Nc4ccc(F)cc4)n3)C2)c1 (stereo not drawn)	1.14
CCCC(=O)NC(c1ccc(C(C)C)cc1)c1ccc2cccnc2c1O (stereo not drawn)	3.11
Cc1cccc2nc(-c3ccc(-c4cccc(NC(=O)c5cccc(C(N)=O)c5)c4)cc3)[nH]c12	3.07
Cc1cccc2nc(-c3ccc(-c4cccc(CN5CCN(c6ccncc6)CC5)c4)cc3)[nH]c12	25.8

Qu. Using the record for "CCCc1c(C(=O)OCC)c2cc(O)ccc2n1-c1ccc(OC)cc1" , state its measured inhibition.
Ans. 6.77

Qu. Look up and state reported inhibition for "C[C@@H](Oc1cc(-n2cnc3ccc(NC(=O)CCN4CCCCC4)cc32)sc1C(N)=O)c1ccccc1Cl"
Ans. 5.72

Qu. Determine from records and report inhibition for CCc1ccc(CN2CCCCC(NC(=O)c3cc(-c4ccccc4F)cs3)C2)cc1 (stereo not drawn)
Ans. -0.89

Qu. Annotate the molecule "CCN(c1ccc(F)cc1)S(=O)(=O)c1cc(Br)cc2c1N(C(=O)C1CC1)CC2" with its measured inhibition.
Ans. 1.32

* * *

Target: Hexose transporter 1 (Plasmodium falciparum)
Experiment: ST_JUDE_LEISH: Cytotoxicity at 2uM final concentration against transgenic Leishmania Mexicana promastigotes LmPfHT that are glucose transport deficient and complemented with the Plasmodium falciparum hexose transporter. Activity is measured by DNA content using SYBR green in vitro
Assay type: functional
MEASURED_QUANTITY: inhibition (%)
Field: numeric (%). Do not append units.

Qu. Given "Cc1cccc2nc(-c3ccc(-c4ccc(NC(=O)NCc5cccc(F)c5)cc4)s3)[nH]c12" , report its inhibition on Hexose transporter 1 (Plasmodium falciparum).
Ans. 9.74

Qu. State the measured inhibition (Hexose transporter 1 (Plasmodium falciparum)) of "CCN(CC)CCN(Cc1ccc(-c2ccc(C(F)(F)F)cc2)cc1)C(=O)Cn1c(SCc2ccc(F)cc2)nc(=O)c2ccccc21"
Ans. 1.11

Qu. Output reported inhibition of the compound N#Cc1ccc2c(c1)CCN(CCC1CCC(NC(=O)c3cc4cccc([N+](=O)[O-])c4[nH]3)CC1)C2 (stereo not drawn) on Hexose transporter 1 (Plasmodium falciparum).
Ans. 10.8
